All values here come from ChEMBL document CHEMBL3301361.

Test: in vitro
Conditions: mouse, plasma
Could you please report measured fraction unbound at 5 h for the items listed next?
No unit in the answer, please; the number alone is enough.

Return fraction unbound at 5 h (reported value) for this compound: `CCCn1c(=O)[nH]c2nc(-c3ccc(S(=O)(=O)N4CCN(Cc5ccc(Cl)cc5)CC4)cc3)[nH]c2c1=O`
0.0007

Return fraction unbound at 5 h (reported value) for this compound: `Cc1nc(-c2c(F)cc(Cl)cc2-c2cnc([C@@H](C)NC(=O)[C@@](C)(O)C(F)(F)F)c(F)c2)no1`
0.0251

Return fraction unbound at 5 h (reported value) for this compound: `COc1ccc(-c2cc(C(F)F)nn2-c2ccc(S(N)(=O)=O)cc2)cc1F`
0.0268

Return fraction unbound at 5 h (reported value) for this compound: `Cc1[nH]c(C(=O)NC2CCN(c3ncc(C(=O)O)s3)CC2)c(Cl)c1Cl`
0.197

Return fraction unbound at 5 h (reported value) for this compound: C[C@H](NC(=O)Cc1cc(F)cc(F)c1)C(=O)NC1C(=O)N(C)c2ccccc2-c2ccccc21 (stereo partly drawn)
0.0171

Return fraction unbound at 5 h (reported value) for this compound: `CC(C)Cc1c(C(=O)C(N)=O)c2c(OCC(=O)O)cccc2n1Cc1ccccc1`
0.0366

Return fraction unbound at 5 h (reported value) for this compound: `CC(C)S(=O)(=O)N(C)c1cc(C(=O)N[C@@H](Cc2ccccc2)[C@@H](N)CF)cc(NC[C@H]2C[C@@H]2C)n1`
0.0191

Return fraction unbound at 5 h (reported value) for this compound: `CCOc1cc(CN2CCC(Nc3nc4cc(S(N)(=O)=O)ccc4o3)CC2)cc(OCC)c1N`
0.0928

---

Assay: physchem
Conditions: octan-1-ol/water, pH 7.4, LogD7.4
Kindly note that classification relies on logD with these boundaries: low = under 2, intermediate = from 2 up to 3, high = 3 and over

// bin(item) where item = `Clc1cc(Nc2ncnc3[nH]nc(OCCN4CCCC4)c23)ccc1OCc1ccccn1`
intermediate

// bin(item) where item = `Cc1cn([C@H]2CCCN([C@H](CC(C)C)c3ccc(C(=O)O)c(Oc4cccc(Cl)c4)c3)C2)c(=O)[nH]c1=O`
low

// bin(item) where item = `N#CCc1c[nH]c2ccc(OCc3ccccc3)cc12`
high

// bin(item) where item = `Cc1cc2n[nH]c(=O)n2c2cc(-c3ccc[nH]3)ccc12`
high

// bin(item) where item = `Nc1nc(N)nc(-c2cccc(C(F)(F)F)c2)n1`
intermediate

// bin(item) where item = `CC(=O)N1CCN(c2ccc(Nc3nccc(-c4cnc(C)n4C(C)C)n3)cc2)CC1`
intermediate

// bin(item) where item = `CCCCC[C@H](c1ccc(C(=O)O)c(Oc2cccc(Br)c2)c1)N1CCC[C@H](n2cc(C)c(=O)[nH]c2=O)C1`
low

// bin(item) where item = `CC(C)CCOc1ccc(N)cc1`
intermediate

// bin(item) where item = `Nc1nc(N)c(-c2ccc(NC(=O)C3CC3)cc2)c(COCc2ccccc2)n1`
intermediate

// bin(item) where item = `Cc1cnc(NC(=O)c2cc(Oc3cnc(C(=O)N(C)C)nc3)c3cc(C)oc3c2)cn1`
intermediate

---

Assay: physchem
Settings: pH 7.4 buffer
Could you please report measured solubility thermodynamic for the items listed next?
Put down the number, then write its unit next to it.

Return solubility thermodynamic (reported value) for this compound: `COc1ccc2c(Oc3ccc(CC(=O)Nc4cc(C)cc(CN(C)C)c4)c(OC)c3)ccnc2c1`
1.8 µM

Return solubility thermodynamic (reported value) for this compound: `COc1cc2ncc(C#N)c(Nc3ccc(Oc4ccccc4)cc3)c2cc1OC`
1.4 µM

Return solubility thermodynamic (reported value) for this compound: `O=C(NO)C1(CS(=O)(=O)c2ccc(Oc3ccc(Cl)cc3)cc2)CCOCC1`
126 µM

Return solubility thermodynamic (reported value) for this compound: `Nc1ncc(-c2cnn(CCO)c2)cc1-c1nc2ccccc2o1`
3.1 µM

Return solubility thermodynamic (reported value) for this compound: O=C(c1ccc(F)cc1)C(O)c1ccc(F)cc1 (stereo not given)
933 µM

---

Assay: in vitro
Conditions: human, microsomes
observedProperty: microsomal CLint (µL/min/mg)
Record the value in µL/min/mg, omitting the unit from your answer.

Return microsomal CLint (reported value) for this molecule: `O=C(NCC12CC3CC(CC(C3)C1)C2)c1cc(CN2CCNCC2)ccc1Cl`
18

Return microsomal CLint (reported value) for this molecule: `C[C@H](CO)Nc1nc(SCc2ccccc2F)nc2nc(N)sc12`
8.13

Return microsomal CLint (reported value) for this molecule: `Cc1cnc(Nc2ccc(F)cc2Cl)nc1-c1c[nH]c(C(=O)N[C@H](CO)c2cccc(Cl)c2)c1`
25.1

Return microsomal CLint (reported value) for this molecule: `O=C(CC1CCCCC1)Nc1c(Cl)ccc2nc(NCCCO)ccc12`
25

Return microsomal CLint (reported value) for this molecule: `O=C(Nc1cc(-c2ccnc(Nc3ccc(F)cc3)c2)ccn1)C1CCOCC1`
6.03

Return microsomal CLint (reported value) for this molecule: `O=c1[nH]c2c(O)ccc([C@@H](O)CNCCc3cccc(CNCCc4ccccc4Cl)c3)c2s1`
19

---

Experiment: physchem
Conditions: pH 7.4 buffer
Class label 1: solubility thermodynamic at least 300 µM. Class label 0: solubility thermodynamic below 300 µM.

Reported solubility thermodynamic reaches at least 300 µM for `COC[C@H](C)Oc1cc(O[C@@H](C)Cc2ccccc2)cc(C(=O)Nc2ccc(C(=O)O)cn2)c1` ?
label 1

Reported solubility thermodynamic reaches at least 300 µM for `CC1(c2nc(N3CCOCC3)ncc2C(=O)N[C@H]2C3CC4CC2C[C@](O)(C4)C3)CC1` ?
label 1

Reported solubility thermodynamic reaches at least 300 µM for `Cc1ccccc1-n1c(Cn2nc(-c3ccc(O)c(F)c3)c3c(N)ncnc32)nc2cccc(C)c2c1=O` ?
label 0

Reported solubility thermodynamic reaches at least 300 µM for `CC(C)OC(=O)N1CCC(Oc2ncnc3c2cnn3-c2ccc(S(C)(=O)=O)cc2F)CC1` ?
label 0

Reported solubility thermodynamic reaches at least 300 µM for `COCCOc1cc(Nc2nccc(N(C)c3cc(CO)ccc3C)n2)cc(N2CCOCC2)c1` ?
label 0

Reported solubility thermodynamic reaches at least 300 µM for `Cn1cc(C(=O)CCCCOc2ccc(C(=O)O)cc2)cc1C=O` ?
label 1

Reported solubility thermodynamic reaches at least 300 µM for `Cc1ncc(C(N)=O)nc1-c1ccc([C@H]2CC[C@H](C(=O)O)CC2)cc1` ?
label 1

Reported solubility thermodynamic reaches at least 300 µM for `CC(=O)c1ccc2[nH]c(-c3cccnc3)cc(=O)c2c1` ?
label 0

Reported solubility thermodynamic reaches at least 300 µM for `O=C(c1ccc(F)cc1)C1CCN(C(=S)Nc2ccc(F)cc2)CC1` ?
label 0

Reported solubility thermodynamic reaches at least 300 µM for `Oc1cc(-c2ccccc2)nc2ccnn12` ?
label 1

Reported solubility thermodynamic reaches at least 300 µM for O=c1c2sccc2n(CC2COc3ccccc3O2)c(=O)n1O (stereo not given) ?
label 0

Reported solubility thermodynamic reaches at least 300 µM for `Nc1ccccc1NC(=O)c1ccc(C2CCN(CCC(=O)Nc3ccccc3F)CC2)cc1` ?
label 0

Reported solubility thermodynamic reaches at least 300 µM for `COc1ccccc1NC(=O)c1cc2ccccc2cc1O` ?
label 0

Reported solubility thermodynamic reaches at least 300 µM for CCCCC1=NC2(CCCC2)C(=O)N1Cc1ccc(-c2ccccc2-c2nnn[nH]2)cc1 [IRBESARTAN] ?
label 1

Reported solubility thermodynamic reaches at least 300 µM for `COc1cc(N2CCN(C(C)=O)CC2)ccc1Nc1ncc(Cl)c(-c2cnc3c(F)cccn23)n1` ?
label 0

Reported solubility thermodynamic reaches at least 300 µM for `Cc1cc(CNc2nccc(Nc3cc(C)[nH]n3)n2)on1` ?
label 1

Reported solubility thermodynamic reaches at least 300 µM for `COc1cc2c(Nc3cc(CC(=O)Nc4cccc(F)c4)[nH]n3)ncnc2cc1OCCCNCCO` ?
label 0

Reported solubility thermodynamic reaches at least 300 µM for NC(=O)N1c2ccccc2C=Cc2ccccc21 [CARBAMAZEPINE] ?
label 1

---

Assay: physchem
Details: pH 7.4 buffer
Class True: solubility thermodynamic at least 30 µM. Class False: solubility thermodynamic below 30 µM.

Reported solubility thermodynamic reaches at least 30 µM for `CS(=O)(=O)c1ccc([C@H](CC2CCCC2)C(=O)Nc2nccs2)cc1` ?
False

Reported solubility thermodynamic reaches at least 30 µM for `Cc1cc2oc(=O)cc(Cn3ccnc3)c2cc1C` ?
True

Reported solubility thermodynamic reaches at least 30 µM for c1ccc(-c2ccc(C(c3ccccc3)n3ccnc3)cc2)cc1 (stereo not given) ?
False

Reported solubility thermodynamic reaches at least 30 µM for `Cc1ccc(-c2nnc(-c3ccccc3)o2)cc1` ?
False

Reported solubility thermodynamic reaches at least 30 µM for `CCN1CCN(c2ccc(Nc3cc(N(C)C(=O)Nc4c(Cl)c(OC)cc(OC)c4Cl)ncn3)cc2)CC1` ?
False

Reported solubility thermodynamic reaches at least 30 µM for `N#CC1(NC(=O)[C@@H]2CCCC[C@H]2C(=O)N2CCc3[nH]c4cc(F)ccc4c3C2)CC1` ?
True

Reported solubility thermodynamic reaches at least 30 µM for `C[C@H](CO)Nc1nc(SCc2ccccc2)nc2[nH]c(=O)sc12` ?
True

Reported solubility thermodynamic reaches at least 30 µM for `c1ccc(-c2n[nH]cc2-c2ccnc3ccccc23)nc1` ?
False

Reported solubility thermodynamic reaches at least 30 µM for `CCC(=O)Nc1c(C#N)c2nc3ccccc3nc2n1-c1ccccc1C` ?
False
